A collection of binders and their measured koff
tgt: T1, human IL-13 (human, UniProt P35225 25-146, limits assumed)
T1 construct: The KinExA antigen was detected with an anti-HIS IgG, so it probably carried a HIS tag; also called Interleukin-13; hIL-13
measurementNotes: SPR array (Carterra LSA), antibody captured on anti-human pAb HC30M chip, human IL-13 0.05-100 nM as analyte, 25 C, 1:1 fit
Hi! Could you send only the number? It should be in s⁻¹, unit omitted.

binder: NB-9 (antibody, human IgG4 S228P, kappa, V domains shown) VH: QVTLRESGPALVKPTQTLTLTCTVSGFSLSAYSVNWIRQPPGKALEWLAMIWGSGKIVYNSALKSRLTISKDTSKNQVVLTMTNMDPVDTATYYCAGDGYYPYAMDNWGQGSLVTVSS VL: DIVMTQSPDSLSVSLGERATINCRASKSVDSYGNSFMHWYQQKPGQPPKLLIYLASNLESGVPDRFSGSGSGTDFTLTISSLQAEDVAVYYCQQNNEDPRTFGGGTKVEIKR
koff [s⁻¹]: 0.000734

// query Given the entry NB-6 (antibody, human IgG4 S228P, kappa, V domains shown) VH: QVTLRESGPALVKPTQTLTLTCTVSGASLSAYSVNWIRQPPGKALEWLAMISGDGKIVYNSALKSRLTISKDTSKNQVVLTMTNMDPVDTATYYCAGDGYYPYAMDNWGQGSLVTVSS VL: DIVMTQSPDSLSVSLGERATINCRASKSVDSYGNSFMHWYQQKPGQPPKLLIYLASNLESGVPDRFSGSGSGTDFTLTISSLQAEDVAVYYCQQNNEDPRTFGGGTKVEIKR , report its measured koff.
// result 0.000855

// query Now the binder NB-1 (antibody, human IgG4 S228P, kappa, V domains shown) VH: QVTLRESGPALVKPTQTLTLTCTVSGASLSAYSVNWIRQPPGKALEWLAMIWGDGKIVYNSALKSRLTISKDTSKNQVVLTMTNMDPVDTATYYCAGLGYYPYAMDLWGQGSLVTVSS VL: DIVMTQSPDSLSVSLGERATINCRASKSVDSYGNSFMHWYQQKPGQPPKLLIYLASNLESGVPDRFSGSGSGTDFTLTISSLQAEDVAVYYCQQNNEDPRTFGGGTKVEIKR
// result 0.000601

// query Please give the result for NB-5 (antibody, human IgG4 S228P, kappa, V domains shown) VH: QVTLRESGPALVKPTQTLTLTCTVSGASLSAYSVNWIRQPPGKALEWLAMIWGSGKIVYNSALKSRLTISKDTSKNQVVLTMTNMDPVDTATYYCAGDGYYPYAMDNWGQGSLVTVSS VL: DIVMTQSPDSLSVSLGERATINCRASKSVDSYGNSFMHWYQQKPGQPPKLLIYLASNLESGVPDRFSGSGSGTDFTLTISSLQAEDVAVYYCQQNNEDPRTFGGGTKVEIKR too.
// result 0.00127
